pIC50: −log10 of the molar value.
Consider the following pIC50 data for Proto-oncogene tyrosine-protein kinase Src (Homo sapiens, UniProt P12931), collected from several reports.

Illustrative cases are given below, each with its answer.
>>> result("CC(C)n1c(C#CC2CCC(C(=O)O)CC2)c(-c2ccc(Oc3ccccc3)cc2)c2c(N)ncnc21 (stereo not drawn)")
"≥ 8.00"
>>> result("O=C(Nc1cccc(Cc2c[nH]c3ncc(-c4cccnc4)cc23)c1)NC1CCCC1")
"≥ 5.00"
>>> result("Cc1cnc2[nH]cc(C(=O)c3c(F)ccc(NS(=O)(=O)CC(C)C)c3F)c2c1")
"≥ 5.00"
>>> result("COc1cc(Nc2ncnc(-n3ccc4cc(Cl)ccc43)n2)cc(OC)c1OC")
"< 4.96"
>>> result("CN(C)C/C=C/C(=O)N1CC(C#Cc2c(-c3ccc(Oc4ccccc4)cc3)c3c(N)ncnc3n2C)C1")
"6.00 to 8.00"

Batch lookup, pIC50 per entry.
1. Cc1cc(C)cc(Nc2nc3c(NCCCN4CCOCC4)nccn3n2)c1
2. COc1ccnc2[nH]cc(C(=O)c3c(F)ccc(NS(=O)(=O)c4cccnc4)c3F)c12
3. CN(C)S(=O)(=O)Nc1ccc(F)c(C(=O)c2c[nH]c3ncc(Cl)cc23)c1F
4. Cc1cccc(Nc2nc3c(-c4ccc(N5CCOCC5)cc4)nccn3n2)c1

1. 4.30 to 5.52
2. ≥ 5.00
3. ≥ 5.00
4. 4.30 to 5.52

###

Compiled IC50 measurements on Proto-oncogene tyrosine-protein kinase Src (Homo sapiens, UniProt P12931) taken from the literature.

Solved entries (count: 4):
>>> result("COc1cc(Nc2ncnc(-n3c(NCc4ccccc4F)nc4ccccc43)n2)cc(OC)c1OC")
"> 8.97 µM"
>>> result("CCCCNC(=O)Nc1cccc(C(=O)c2c[nH]c3ncc(-c4cccnc4)cc23)c1")
"≤ 10 µM"
>>> result("C=CC(=O)N1CCC(N2CC(C#Cc3c(-c4cccc(Cl)c4OC)c4c(N)ncnc4n3C)C2)CC1")
"1 to 10 µM"
>>> result("C=CCNc1ncccc1-c1ncnc(Nc2cc(OC)c(OC)c(OC)c2)n1")
"1.01 to 6.08 µM"

For each entry beneath this line, provide reported IC50.
1. FC(F)(F)c1cccc(Nc2nc3c(-c4cccnc4)nccn3n2)c1
2. COc1cc(Nc2cc(Oc3ccc(NC(=O)Nc4cc(C(C)(C)C)cc(NS(C)(=O)=O)c4OC)c4ccccc34)ccn2)ccc1C(=O)NC1CCN(C)CC1
3. COc1cc(Nc2ncnc(-n3cc(CCO)c4ccccc43)n2)cc(OC)c1OC
4. CN1C(=O)N(c2cc(NC(=O)c3ccc(-c4ccccc4)cc3)ccc2Cl)Cc2cnc(N)nc21
5. NC(=O)c1c(-c2ccncc2)nn(-c2c(Cl)cc(Cl)cc2Cl)c1N

["3 to 50 µM", "0.016 µM", "0.949 to 5.69 µM", "0.05 to 0.15 µM", "6.4 µM"]

###

Please find below IC50 measurements for Proto-oncogene tyrosine-protein kinase Src (Homo sapiens), combined from several publications.

>>> result("COc1cc(-c2cc3nccc(-c4cnn(C)c4)c3o2)ccc1O")
"300 to 3000 nM"
>>> result("CC(C)OC(=O)Nc1cnc2[nH]c(-c3ccc(N)cc3)nc2c1")
"10 to 500 nM"
>>> result("CC(=O)Nc1cccc(-c2cnc3[nH]cc(C(=O)c4cccc(O)c4F)c3c2)c1")
"≤ 10000 nM"

Kindly consider the entry below.
Requested field: IC50. Item: C=CC(=O)N1CCC(N2CC(C#Cc3c(-c4ccc(Cl)c(CO)c4)c4c(N)ncnc4n3C)C2)CC1 10 to 1000 nM
